System: MS2 coat protein
Assay: apparent Kd, MS2 coat protein; higher = weaker binding; RNA-MaP array; FMN 200 µM where present
Settings: designed as: OFF switch for flavin mononucleotide; no ligand
Field: apparent Kd. Provide a value for each of the sequences that follow.
One number for each entry, in nM.

Record apparent Kd for all entries; do not skip any.
1. UAUGUGUCAGGAUAUUAAUUAUUGGAGAAUGUGACGAUGAUUAAGAAGGGACAUGAGGAUCACCCAUGUUCAUC
2. GGAGAUACAUGAGGAUCACCCAUGUAGGAUAUAUAGUAUAUAUAUAGCGAAAGCUAUAUAUAUAUAUAGAAGGGCGUACACACC
3. AAAAGCAAAGGAUAUACAUGAGGAUCACCCAUGUAAAAAAGAAAAGAGUAUAUGGCAUGUAGAAGGUUGCGUGG
4. GCGUUAGUAUCACAUGUAUUACAUGAGGAUCACCCAUGUUACUAGGAUAUGUAUUAGAAUUAUCAACAGAAGGAGUAAUAACGC

Result:
[20.4, 7.67, 34.5, 12.6]

Ask: Complete the entry with apparent Kd for GUGUAGAGAGGAUAUACAUGAGGAUCACCCAUGUGAAUAAGAUAGAAUAAGAUAAAGUGUAGAAGGUUUAGUGU
Result: 43

* * *

Test system: MS2 coat protein
Assay: apparent Kd, MS2 coat protein; higher = weaker binding; RNA-MaP array; FMN 200 µM where present
Settings: ligand present: flavin mononucleotide; designed as: ON switch for flavin mononucleotide
Field: apparent Kd. Provide a value for each of the sequences that follow.
Lab note: write values as number then unit, every time.

Example sequences with recorded apparent Kd:
UGGUACUAGGGAGGAUAUGGGAAGAUACAUGAGGAUCACCCAUGUUUAAGACUGCCGAGAGGCAACUAGAAGGCCCUAGUACCU    27.4 nM
AAUUAAUUAAUUAAUAUACAUGAGGAUCACCCAUGUAAGAUCAAGGAUAUCAGCUCGAAUAGAGCUGAGAAGGUGAUCACAUGU    674 nM
GAACGUGACAUGAGGAUCACCCAUGUUGCCUUGGCCAGGUCGUAGGAUAUCCUGAUGAUUAAUUUGGAGAAGGGCGACUGGGAG    15.3 nM
UUGGACGUCGUAGGAUAUGUAGGAUAUUCUUACAUGAGGAUCACCCAUGUUGACAUGGAAGAAGGACAGAAGGACGAUGUCCAU    7.2 nM
GACAUACAUGAGGAUCACCCAUGUUCAGAAGGACAAGGAUAUGUGUGGAAACCAUACUAUACAGAAGGUGUCUGUC    19.9 nM

Record apparent Kd for all entries; do not skip any.
1. GGGUACAUCGGAGGAUAUCAUGUAAGUACAUGAGGAUCACCCAUGUCGAUGGAGACAUCGGAGAUUGAGAAGGCCGAUGUACCG
2. GGCUCGCAGCUAGGAUAUGGGCGGUCACAUGAGGAUCACCCAUGUCAACAUCAAAACCAGAUUAACCAGAAGGAGCUGCGGGUU
3. GUAGCAUACCGAGGAUAUUCAUACCGUAAACGGACAUGAGGAUCACCCAUGUGGCGAAAGCCUUGGGAGAAGGCGGAAUGCUAC

Result:
1: 8.71 nM; 2: 739 nM; 3: 30.5 nM

Ask: Enter measured apparent Kd, system MS2 coat protein, for the sequence shown: UGGUACAUGGGAGGAUAUGGGUUGAUAACAUGAGGAUCACCCAUGUUAAAUAUGCCUCAUGGCAACUAGAAGGCCCAUGUACCU
Result: 95.1 nM

* * *

Test system: MS2 coat protein
Test: apparent Kd, MS2 coat protein; higher = weaker binding; RNA-MaP array; tryptophan 2.4 mM where present
Conditions: designed as: OFF switch for tryptophan; no ligand
Field: apparent Kd. Provide a value for each of the sequences that follow.
Give bare numbers, in nM.

Record apparent Kd for all entries; do not skip any.
1. GAUUUAACAAAAGUUAGAUCAGUGGGUGAACGAGGACCGGUACGGCCGCCACUCGGACAUGAGGAUCACCCAUGUCCAUGUGAAA
2. ACUUCGCAUAGGAAAACUAUGUGAAGAAAUCGAGGACCGGUACGGCCGCCACUCGUCCUCAACAUGAGGAUCACCCAUGUAAUAA
3. GGCACAUAGUCGGCCGCCACUAGAAUAAGAUGGAAUAACAUGAGGAUCACCCAUGUAAAAGGGACUAGGACCGGGACUAUGUGCC
4. GUGCCGCAUUCACAUGAGGAUCACCCAUGUCGAGGACCGGUACGGCCGCCACUCGACGUGCUUACAGGUCCUUUAAGGCCCAAUA
5. CGUAUUGGAAACAGUACGAGUGAUCCGGUCCGAGGACCGGUACGGCCGCCACUCGAAAUUAAUAAACAUGAGGAUCACCCAUGUA
6. AACGAGUGGCGGCCAUUGGGUGAUCCUCUACGAGGACCGGUACGGCCGCCACUCGAUAACAUGAGGAUCACCCAUGUGCCGAUAA
7. GUUGGACUUUCGGCCGCCACUGAGAGAGUCAUGUGAACAUGAGGAUCACCCAUGUAAUAUAUAUACAGGACCGGGAGGGUUGUAA
8. UCGUGCAGAGCGGCCGCCACUGUAUUGCGUGCGGAUGACGGAACAUGAGGAUCACCCAUGUUGUUUAGGACCGGGCUUGCCACCA

Result:
17.8
20.1
13.7
92.8
17.8
124
13.3
12.7

Ask: Complete the entry with apparent Kd for GGAGUAGGAAACUAUUCCAAUCCUCGUGAACGAGGACCGGUACGGCCGCCACUCGAUAAAUAAAUACAUGAGGAUCACCCAUGUU
Result: 68.8

* * *

Tested on: MS2 coat protein
Experiment: apparent Kd, MS2 coat protein; higher = weaker binding; RNA-MaP array; FMN 200 µM where present
Conditions: ligand present: flavin mononucleotide; designed as: OFF switch for flavin mononucleotide
metric: apparent Kd (µM)
Give bare numbers, in µM.

Example sequences with recorded apparent Kd:
GUCGUGUGAGGAUAUGGAUAGACGCAGUGACAGUCAGCGACCUAGAAGGCACAUGAGGAUCACCCAUGUAUGUG    0.1
GGCAUGUGGGCAGGAUAUAACUCGGUCUCUAGGUUAGAAGGGCCACACAUGAGGAUCACCCAUGUCGACCAGGCAGUCCUCCCU    0.0605
GGAUAGGACAGAGGAUAUACGUGCUAGAGAUACUAGCAAAUUUUCCUCACAUGAGGAUCACCCAUGUAGAAGGCUGUCCUAUCG    0.511
CCCACGAAAGUCGAACGAUGUAGCAGAAGGACAUGAGGAUCACCCAUGUCAGCUGUAACAGCCAUGUAGGAUAUGCUACAUCCC    0.00688

Record apparent Kd for all entries; do not skip any.
1. UUUUAGUCAGGAUAUCGUUAAUUUAAUUGUUUGUAUUAGUUCGAGAAGGGACAUGAGGAUCACCCAUGUACUUU
2. GUCAGCUCGUGAGGAUAUACAUCACUGCUUCGGCAGUGUAUUAAGACUACAUGAGGAUCACCCAUGUAGAAGGCACGAGCUGAU

Result:
1. 0.0245
2. 0.0179

Record apparent Kd for all entries; do not skip any.
1. GAGAUGUGAGGAUAUCUAGACCGCGAAAGAGCCGCGGUCCGAGAGAAGGCACAUGAGGAUCACCCAUGUGAUGA
2. AAUAUGAGCUGGUAUAAAUCCGAAACAUGAGGAUCACCCAUGUAGGAUAUCAGCACGAUAAGUGCUGAGAAGGACAUCCAGCUC
3. GUUAAGGUAGGAUAUACGAUAAUAUAGGGUAGAUAUAGAACACAUGAGGAUCACCCAUGUAGAAGGACCAAUUG

Result:
[0.119, 0.0162, 0.0889]

* * *

Test system: MS2 coat protein
Test: apparent Kd, MS2 coat protein; higher = weaker binding; RNA-MaP array
Details: designed as: OFF switch for flavin mononucleotide; no ligand
Field: apparent Kd. Provide a value for each of the sequences that follow.
Lab note: write values as number then unit, every time.

UCCUUUAGACAUGAGGAUCACCCAUGUAGCCUCACUGUUCGUAGAAGGACACCGCUGUUCAAGCUGUAGGAUAUACGGAGGAUC    0.468 µM
AAGCCACAUGAGGAUCACCCAUGUGAGGAUAUUCAUCUAGAUCAACAAGACACGGAUAGAAGAAGGCACGGUGG    0.014 µM
GCUCACAUGAGGAUCACCCAUGUCACGAGGUGAUGAUGAACAAGAAGGAAACUCAUAUGAUCAGUUUAGGAUAUUGCCCAGCGA    0.791 µM
AUACACAGAGUUAGGAUAUCUACAUAAAACAAAAUAGAGAAGGAACAUGAGGAUCACCCAUGUAAUGAUCAAAC    0.00999 µM
AACGGUGCGCGAGGAUAUCACGUACCAAGAGGAUGAGAAGGCGCGCGUACAGGUUGGUGAACAUGAGGAUCACCCAUGUGGUAC    0.0995 µM

Record apparent Kd for all entries; do not skip any.
1. UGAGUAAGCGAGGAUAUUGGGCGCGUACGUGGUCAAGAAGGCGCAACAUGAGGAUCACCCAUGUGCUUCUCUUG
2. CCGUAUCCGUAGGAUAUCGACACGAGUCACGUGCGAGAAGGACGGACAUGAGGAUCACCCAUGUAUGCUUCGUG
3. AUUAGACAAGGAUAUACAAGUCGUAUCGGCGCUGGGUGUAUACAUGAGGAUCACCCAUGUAGAAGGUGUGCUAU
4. GGAUGGGUGGAAGGAUAUGAGCCCAGGACAUGAGGAUCACCCAUGUGUAGUUCAGUCUCUAAUUCUCAGAAGGUCCAGAUUCUA
5. GCUCCGCUAGCAGGAUAUGUAGGGGGAUUAUUGAUUGGGCGUAACAUGAGGAUCACCCAUGUUCCACAGAAGGGCUGGAGAAGA
6. AGUGGUGGGAAGGAUAUCUUCCGGCGUUAGCCUAGAGAAGGUCCCACAUGAGGAUCACCCAUGUUGACAUCGGU
7. UUACAGAAAGGAUAUACAUGAGGAUCACCCAUGUAGUAUGAGUUGGUGAGAGUUCGUGGUAGAAGGUUCCGCAA
8. ACUGGUUCGGUUGUCACACAUGAGGAUCACCCAUGUAAGGUAGAGGAUAUCGCUCCGUCCUUCGGCGAGAAGGCUAUUCGACGC

Result:
0.0157 µM
0.0226 µM
0.101 µM
0.0181 µM
0.107 µM
0.373 µM
0.053 µM
0.013 µM

Record apparent Kd for all entries; do not skip any.
1. CGUUAGACAGGAUAUACACUGGGAAGCGCGGUUUGCGGGAGACAUGAGGAUCACCCAUGUAGAAGGGUCCGGCA
2. CAUGUCAAAGACAUGAGGAUCACCCAUGUAAUCCAAGACGCAAGAAGGGCGUGUUGAACUAACACGCAGGAUAUUGACCCUGUU
3. ACCCGAGAUACAGGAUAUGCGUCCGCGUGAGCCAUGGUUAAAGCACAUGAGGAUCACCCAUGUUGGCAGAAGGGAAUCUCAUGA
4. CGUCUACAUGAGGAUCACCCAUGUCAGGAUAUACACCAACAACCUUCGCGAGAUAGGUGUAGAAGGGACGGGUA

Result:
0.00914 µM
0.0575 µM
0.0537 µM
0.00876 µM

Record apparent Kd for all entries; do not skip any.
1. UCUAUGUUAGGAUAUCUGUUGCAUGCCUGGCCGCGAUGCAAAGAGAAGGAACAUGAGGAUCACCCAUGUCAUAU
2. CGUGUAGGGUAGGAUAUUCGAACACCACAAGGAGAAGAAGGACCUACAUGAGGAUCACCCAUGUGGUUAAUGGC
3. UUUUUUUAACAGAAGGACAGACAUAUGAGGGACAUGAGGAUCACCCAUGUGUGCUCGCGUAGGCUGUAGGAUAUGUAGUGCUGG
4. CUAAAGGAUGAAGGAUAUUUGAGUGACACGCAGAAAGAAGGUCAAGCUUACAUGAGGAUCACCCAUGUGCGUGAGUGCAGGUGC

Result:
1. 0.0193 µM
2. 0.112 µM
3. 0.0112 µM
4. 0.0144 µM

Ask: Complete the entry with apparent Kd for CAUGUACUAGGAUAUACAAUCACUCGUCAGGCAGCGUUAACACAUGAGGAUCACCCAUGUAGAAGGAGUUUAAA
Result: 0.00874 µM

Origin of the recorded values: the EternaBench riboswitch data
